Provenance of the data: patent US7879760B2

# protocolText: logP determination by HPLC on reversed phase column (C 18), EEC-Directive 79/831 Annex V.A8
# Type: physicochemical
# cond: reversed phase HPLC column (C 18), pH 2.3, 0.1% aqueous phosphoric acid/acetonitrile gradient, 43° C.
Structures can show the parent of a compound that is named as a salt.
measuredMetric: chromatographic logP
# output: bare number, no unit

Here's what some known entries look like.
{"compound": "CC(C)(C)C#Cc1ccccc1NC(=O)c1ccccc1C(F)(F)F", "chromatographic logP": 4.55}
{"compound": "CC(C)(C)CCc1ccccc1N [Example (III-3), hydrochloride]", "chromatographic logP": 2.2}
{"compound": "CC(=O)Nc1ccccc1C#CC(C)(C)C", "chromatographic logP": 3.03}
{"compound": "Cc1nn(C)c(F)c1C(=O)Nc1ccccc1CCC(C)C", "chromatographic logP": 3.12}

*Q* Fill in: chromatographic logP of CC(=O)Nc1ccccc1CCC(C)(C)C [Example (III-2), N-[2-(3,3-dimethylbutyl)phenyl]acetamide] is ___
*A* 2.69

*Q* Find the recorded chromatographic logP belonging to Cc1nn(C)c(F)c1C(=O)Nc1ccccc1C(=O)CC(C)C and report it.
*A* 3.42

*Q* Param item = CC(C)CC(=O)c1ccccc1N ; retrieve measured chromatographic logP.
*A* 2.89
